Provenance of the data: PubChem BioAssay (NCI)

tested on: TK-10 renal; experiment: NCI tumour cell line growth inhibition, 48 h

{"COMPOUND": "O=C(O)c1ccc2[nH]c(=O)oc2c1", "TGI": "> 100 µM"}
{"COMPOUND": "COc1ccc(/C=N/C2=NNC(C)(c3ccccc3O)N2C(Cc2c[nH]c3ccccc23)C(=O)O)cc1 (stereo not given)", "TGI": "10.9 µM"}
{"COMPOUND": "N#CCc1nc(-c2cc3ccc(O)cc3oc2=O)cs1", "TGI": "> 100 µM"}
{"COMPOUND": "O[C@]12c3ccccc3C1CCCC2N1CCOCC1 (stereo not given in full)", "TGI": "> 100 µM"}
{"COMPOUND": "Cc1cccc(/C=N/N=C(\\N)NO)n1", "TGI": "> 100 µM"}
{"COMPOUND": "COc1ccccc1C(=O)Nc1ccc(Cl)c(C(=O)OC(C)C)c1", "TGI": "> 100 µM"}
{"COMPOUND": "CC(C)C1COC(C(C)(C)C2=N[C@@H](C(C)C)CO2)=N1 (stereo not given in full)", "TGI": "> 100 µM"}
{"COMPOUND": "O=C(/C=C/c1cc(O)ccc1O)c1ccc(Cl)cc1", "TGI": "> 100 µM"}
{"COMPOUND": "Nc1csc(-c2scc3c2OCCO3)c1N", "TGI": "87.3 µM"}
{"COMPOUND": "CCOC1Oc2ccccc2-c2nc(N)ncc21 (stereo not given)", "TGI": "> 100 µM"}
{"COMPOUND": "CC(C)CCCC(C)[C@H]1CCC2C3CC=C4C[C@@H](OC(=O)CC(CC(=O)[O-])C(=O)[O-])CC[C@]4(C)C3CC[C@@]21C.N.N.[Pt+4] (stereo not given in full)", "TGI": "> 100 µM"}
{"COMPOUND": "CC(=O)OCc1ncccc1C(OC(C)=O)OC(C)=O", "TGI": "> 100 µM"}
{"COMPOUND": "NC(=S)N/N=C1/C(=O)N(c2ccccc2)C(=O)C1C(=O)Nc1ccccc1 (stereo not given)", "TGI": "> 100 µM"}
{"COMPOUND": "NCCNc1nc2ccc(F)cc2c2c(=O)c3cc(F)ccc3sc12", "TGI": "3.57 µM"}
{"COMPOUND": "N#CC(C#N)=C(N)/C(C#N)=C/c1ccc(O)c(O)c1", "TGI": "> 100 µM"}

====

Below: a set of entries, each annotated with reported TGI.
test system: SK-MEL-5 melanoma; assay: NCI tumour cell line growth inhibition, 48 h

{"MOLECULE": "CC(=O)NC(CCCCN(Cc1ccccc1)C(=O)N(C)N=O)C(=O)NCc1ccccc1 (stereo not drawn)", "TGI": "> 100 µM"}
{"MOLECULE": "Cn1c(=S)c2[nH]c(SCc3cccnc3)nc2n(C)c1=O", "TGI": "> 100 µM"}
{"MOLECULE": "COc1cc2cc[n+](C)c(Cc3ccc(Oc4cc(Cc5c6cc(OC)c(OC)cc6cc[n+]5C)ccc4OC)cc3)c2cc1OC", "TGI": "> 100 µM"}

====

tested on: NCI-H522 lung; assay: NCI tumour cell line growth inhibition, 48 h
TGI values, listed per item

{"SMILES INPUT": "Nc1nc(N)c2cc(S(=O)(=O)c3ccccc3)ccc2n1", "SYSTEM": "NCI-H522 lung", "TGI": "> 100 µM"}
{"SMILES INPUT": "O=S(=O)(N1CCCCN(S(=O)(=O)C(F)(F)F)CCCN(S(=O)(=O)C(F)(F)F)CCCCN(S(=O)(=O)C(F)(F)F)CCCN(S(=O)(=O)C(F)(F)F)CCCCN(S(=O)(=O)C(F)(F)F)CCCN(S(=O)(=O)C(F)(F)F)CCCCN(S(=O)(=O)C(F)(F)F)CCC1)C(F)(F)F", "SYSTEM": "NCI-H522 lung", "TGI": "> 31.6 µM"}
{"SMILES INPUT": "CCOc1ccc2c(c1)[n+]([O-])c(-c1ccc([N+](=O)[O-])cc1)c(N)[n+]2[O-]", "SYSTEM": "NCI-H522 lung", "TGI": "> 100 µM"}
